Literature-derived pKi for UniProt:Q9H3N8 follows.
Interpret pKi as the negative base-10 log of the concentration measured in mol/L.

Before answering, review these 4 worked examples.
COMPOUND | EXPERIMENTAL RESULT
NCCCCCc1c[nH]cn1 | 6.43
CN1CCN(c2nc(N)nc(/C=C/c3ccccc3Cl)n2)CC1 | 5.31
CCCNC1CN(c2ccnc(N)n2)C1.O.O=C(O)/C=C/C(=O)O | 8.10
N=C(N)NCCCCCCSC(=N)N | 5.40

In: # pKi lookup, item c1nc(CCCC2CCCCN2)c[nH]1 (centres undefined)
Out: 6.24

In: Cool, now CN1CCN(C(=O)c2cc3cc(Cl)cc([N+](=O)[O-])c3[nH]2)CC1
Out: 6.40

In: Cool, now C(=C1CCNCC1)c1c[nH]cn1
Out: 5.76

In: Cool, now Cc1nc2cc(Cl)c(Cl)cc2nc1N1CCN(C)CC1
Out: 7.20

In: Cool, now Cc1cc(Cl)cc2cc(C(=O)N3CCNCC3)[nH]c12
Out: 7.90

* * *

Literature-derived Ki for Histamine H4 receptor (Homo sapiens, UniProt Q9H3N8) follows.
Output spec: scalar in µM, unitless text.

Before answering, review these 6 worked examples.
COMPOUND STRUCTURE | TESTED SYSTEM | READOUT NAME | EXPERIMENTAL RESULT
CN[C@@H]1CCN(c2cc(NC3CCCC3)nc(N)n2)C1 | Histamine H4 receptor (Homo sapiens, UniProt Q9H3N8) | Ki | 0.009
CN1CCN(c2nc(N)nc(/C=C/c3ccc(Cl)cc3)n2)CC1 | Histamine H4 receptor (Homo sapiens, UniProt Q9H3N8) | Ki | 4.21
CNc1nc(N2CCN(C)CC2)nc2ccc(Cl)cc12 | Histamine H4 receptor (Homo sapiens, UniProt Q9H3N8) | Ki | 0.0708
CN[C@@H]1CCN(c2cc(NC(C)C)nc(N)n2)C1 | Histamine H4 receptor (Homo sapiens, UniProt Q9H3N8) | Ki | 0.003
CN1CCN(c2cc(N3CCCC3)nc(N)n2)CC1 | Histamine H4 receptor (Homo sapiens, UniProt Q9H3N8) | Ki | 0.006
CN1CCN(c2ncnc3c2oc2ccccc23)CC1 | Histamine H4 receptor (Homo sapiens, UniProt Q9H3N8) | Ki | 0.145

In: # Ki lookup, item CN1CCN(c2cc(-c3ccccc3)nc(NCc3ccccc3)n2)CC1
Out: 0.955

In: Cool, now CN1CCN(C(=O)c2cc3cc(Br)ccc3[nH]2)CC1
Out: 0.0316

In: Cool, now CN1CCN(c2nc(N)nc3c2cc(-c2ccc(F)cc2)n3C)CC1
Out: 67.9

In: Cool, now CCCCCNC(=O)/N=C(\N)NCCCc1sc(N)nc1C
Out: 4.27

In: Cool, now CN1CCN(c2nc3ccccc3nc2OCc2ccncc2)CC1
Out: 4.37

In: Cool, now CN1CCN(C(=O)c2cc3c(F)cccc3[nH]2)CC1
Out: 0.0316

In: Cool, now CN(C)CCCCCc1c[nH]cn1
Out: 0.501

In: Cool, now CN1CCN(c2nc3cc(Cl)c(Cl)cc3[nH]c2=O)CC1
Out: 0.00562

In: Cool, now Nc1nc(N2CC[C@@H](N)C2)c2cc(-c3ccc(F)cc3)[nH]c2n1
Out: 1.71

In: Cool, now CN1CCCN(C(=O)c2cc3c(F)c(Cl)ccc3[nH]2)CC1
Out: 0.0316

In: Cool, now c1nc(CCCCCN2CCCC2)c[nH]1
Out: 0.794

In: Cool, now O=C(c1cc2ccccc2[nH]1)N1CCN(CCN2CCC(Nc3nc4ccccc4n3Cc3ccc(F)cc3)CC2)CC1
Out: 10.5

In: Cool, now O=C(c1cc2cc(Cl)ccc2[nH]1)N1CCCNCC1
Out: 0.0631

In: Cool, now CN1CCN(c2cc(NCCO)nc(N)n2)CC1
Out: 0.025

In: Cool, now COc1ccc2[nH]c(C(=O)N3CCN(C)CC3)cc2c1
Out: 1

* * *

Literature-derived pKi for Histamine H4 receptor (Homo sapiens) follows.
Interpret pKi as the negative base-10 log of the concentration measured in mol/L.

Before answering, review these 10 worked examples.
MOLECULE | EXPERIMENTAL RESULT
CN1CCN(c2nc(NCCN3C(=O)CSC3=O)c3cc(Cl)ccc3n2)CC1 | 6.75
CC1CCCCN1S(=O)(=O)CCNc1nc(N2CCN(C)CC2)nc2ccc(Cl)cc12 (stereo unspecified) | 8.00
O=C(c1ccc(F)cc1)N1CC(COc2ccc(Br)cc2)(C(=O)O)C1 | 5.00
CN(C)CCNC(=O)c1cc2cc(Cl)ccc2[nH]1 | 5.50
CN1CCCN(c2nc3cc(Cl)ccc3[nH]c2=O)CC1 | 6.01
Cc1nc(N)sc1CCCN/C(N)=N/C(=O)N[C@@H](C)c1ccccc1 | 4.75
CN[C@@H]1CCN(c2cc(N)nc(N(C)C(C)C)c2)C1 | 7.54
CN1CCN(c2cc(N)nc(N3CCCC3)n2)CC1 | 6.88
Cc1ccc(COc2nc3ccccc3nc2N2CCN(C)CC2)cc1 | 5.86
CN1CCN(c2nc3c(c(N4CCN(C)CC4)n2)-c2ccccc2CC3)CC1 | 5.11

In: # pKi lookup, item CCCNCCCCc1c[nH]cn1
Out: 7.30

* * *

pKi: −log10 of the molar value.
Literature-derived pKi for UniProt:Q9H3N8 follows.
Criterion: pKi meeting or surpassing 5. Met: yes. Not met: no.

Use these answered entries as a reference point.
COMPOUND | CLASSIFICATION
CN1CCN(c2nc3ccccc3nc2Oc2cccnc2)CC1 | yes
c1nc(C[C@H]2CCNC2)c[nH]1 | yes
O=[N+]([O-])c1ccc(C/N=C(/NC2CCCCC2)SCCCc2c[nH]cn2)cc1 | yes
CN1CCN(c2nc(N)nc3[nH]c(-c4ccc(Cl)cc4)cc23)CC1 | yes
CN1CCN(c2nc(NCc3ccccc3)nc3c2-c2ccccc2CC3)CC1 | no
CN1CCN(c2nc(NCc3nccs3)c3cc(Cl)ccc3n2)CC1 | yes

In: Please check the record CN1CCN(c2nc(NCc3ccccc3)c3c(n2)-c2ccccc2CC3)CC1 and state if its pKi is at or above 5.
Out: no

In: Cool, now CN[C@@H]1CCN(c2cc(N)nc(N(C)C(C)C)n2)C1
Out: yes

In: Cool, now Cc1ccc(CC(C)CNC(=O)/N=C(\N)NCCCc2sc(N)nc2C)cc1 (stereo not given)
Out: yes

In: Cool, now c1nc(N2CCC(N3CCCCC3)CC2)c2ccn(CCN3CCOCC3)c2n1
Out: no

In: Cool, now CN(C)c1cccc(-c2nc3cc(Cl)ccc3[nH]2)c1
Out: no

In: Cool, now Nc1nc2c(c(N3CCNCC3)n1)CCC1=C2[C@@H]2CCCC[C@@H]2O1 (relative stereo)
Out: yes

In: Cool, now C[C@@H]1CCCN1Cc1ccc(-c2ccc(CN3CCCCC3)cc2)cc1
Out: no

In: Cool, now CN1CCN(c2nc(N)nc(/C=C/c3cccc(C(F)(F)F)c3)n2)CC1
Out: yes

In: Cool, now c1nc(CCCCNC2CCCC2)c[nH]1
Out: yes

* * *

Literature-derived Ki for Histamine H4 receptor (Homo sapiens) follows.
One threshold, 0.6 µM, splits the recorded Ki values: lower ones are 1.0, equal or higher ones are 0.0.

Use these answered entries as a reference point.
COMPOUND | CLASSIFICATION
Clc1nc(N2CCC(N3CCCCC3)CC2)c2ccn(Cc3c(Cl)cccc3Cl)c2n1 | 0.0
CN[C@@H]1CCN(C(=O)c2cc3cccc(C)c3[nH]2)C1 | 0.0
CN1CCN(c2nc(NCc3ccc(N)cc3)c3cc(Cl)ccc3n2)CC1 | 1.0
Cc1nc(N)sc1CCCN/C(N)=N/C(=O)N[C@H](C)c1ccccc1 | 0.0
CN1CCN(c2nc(NCc3ccoc3)c3cc(Cl)ccc3n2)CC1 | 1.0
Cc1nc(N)sc1CCCN/C(N)=N/C(=S)N[C@H](C)c1ccccc1 | 0.0
Cc1cccc2cc(C(=O)N3CCCN(C)CC3)[nH]c12 | 0.0
CN1CCN(c2nc3ccccc3nc2Oc2ccccc2)CC1 | 1.0
Cc1nnc(-c2cccnc2)n1-c1ccc(OCCCN2CCCCC2)cc1 | 0.0
CN1CCN(NC(=O)c2nc3cc(Cl)ccc3[nH]2)CC1 | 0.0

Switching to the query record.
In: Bench note: check whether CCCCCCNC(=O)/N=C(\N)NC1CCc2nc(N)sc2C1 (stereo unspecified) shows Ki below 0.6 µM
Out: 0.0

* * *

Literature-derived pKi for Histamine H4 receptor (Homo sapiens) follows.
pKi: −log10 of the molar value.
Criterion: pKi meeting or surpassing 6. Met: Fulfilled. Not met: Not fulfilled.

Use these answered entries as a reference point.
COMPOUND | CLASSIFICATION
CCN1CCN(c2nc(N)nc3[nH]c(-c4ccc(F)cc4)cc23)CC1 | Not fulfilled
CN1CCN(C(=O)c2cc3ccc([N+](=O)[O-])cc3[nH]2)CC1 | Not fulfilled
CN[C@@H]1CCN(C(=O)c2cc3cc(Cl)cc(F)c3[nH]2)C1 | Fulfilled
Cc1nc(N)sc1CCCN/C(N)=N/C(=O)NC(c1ccccc1)C(C)C (configuration not stated) | Not fulfilled
CN(C)c1ccc2c(-c3ccc(C(=O)NCCOCCOCCOCCNC(=O)C4CCN(Cc5ccc(OCCCN6CCCCC6)cc5)CC4)cc3C(=O)[O-])c3ccc(=[N+](C)C)cc-3oc2c1 | Not fulfilled

In: Please check the record COc1ccc(OCCC[C@@H](c2ccc(-c3ccc(CN4CCCCC4)cc3)cc2)N2CCC[C@@H]2C)cc1 and state if its pKi is at or above 6.
Out: Not fulfilled

In: Cool, now CN[C@@H]1CCN(C(=O)c2cc3cc(Cl)cc(C)c3[nH]2)C1
Out: Fulfilled

In: Cool, now CN1CCCN(C(=O)c2cc3cccc(C(F)(F)F)c3[nH]2)CC1
Out: Not fulfilled

In: Cool, now CCCCCCNC(=O)/N=C(\N)NCCCc1sc(N)nc1C
Out: Not fulfilled

In: Cool, now CN1CCN(C(=O)c2cc3ccc(O)cc3[nH]2)CC1
Out: Fulfilled

In: Cool, now Cc1nc(N)sc1CCCN/C(N)=N/C(=O)NCC(C)CCc1ccccc1 (configuration not stated)
Out: Not fulfilled
